abundance fitness: recorded values
B1: Homeobox protein cut-like 1, residues 941 to 1008; numbered along this chain, P39880 (parent)
chain: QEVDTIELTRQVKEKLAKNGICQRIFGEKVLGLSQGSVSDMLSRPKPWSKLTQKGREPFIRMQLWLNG

variants of: B1; assay: abundance fitness (aPCA) (normalised: wild type 0, dead -1); higher = more abundant; growth selection in yeast, the domain comes from the species named; conditions: Homo sapiens
Please give only the number in your answer, with no unit.

Sample records with abundance fitness:
{"MUTATION_ID": "S34G", "abundance fitness": -0.132}
{"MUTATION_ID": "K15M", "abundance fitness": -0.148}
{"MUTATION_ID": "L51S", "abundance fitness": -0.92}
{"MUTATION_ID": "G20K", "abundance fitness": 0.046}
{"MUTATION_ID": "G32F", "abundance fitness": -0.313}
{"MUTATION_ID": "R44C", "abundance fitness": -0.007}
{"MUTATION_ID": "L31C", "abundance fitness": -0.255}
{"MUTATION_ID": "R24Y", "abundance fitness": -0.101}

Exam item: May I ask what abundance fitness has been recorded for L42Y ?
Marked response: -0.481

Exam item: May I ask what abundance fitness has been recorded for D40T ?
Marked response: -0.121

Exam item: May I ask what abundance fitness has been recorded for R10K ?
Marked response: 0.074
